B1: tRNA (parent)
chain: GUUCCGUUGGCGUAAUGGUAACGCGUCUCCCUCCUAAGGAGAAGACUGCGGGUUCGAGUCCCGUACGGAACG

Variants of: B1
PROTOCOL NOTES: yeast fitness relative to wild type (ratio to wild type); higher = fitter; tRNA-Arg(CCU), competitive growth, 37 C, YPD
Variants at the floor of the assay were thinned out.
The following variants are shown together with reported yeast fitness values.

Examples from the recorded data:
record_sequence=GUUCCGUUGGUGUAAUGGUAACGCGUCUCCCUCCUAAGGAGAAGACUGCGGGUUCGAGUCCCGUUCCGAACG quantity_name="yeast fitness" reported_value="≤ 0.5"
record_sequence=GUUCCGUUAGCGUAAUGGUAACGAGUCUCCCUCCUAAGGAGAAGACUGCGGGUUAGAGUCCCGUACGGAACG quantity_name="yeast fitness" reported_value="≤ 0.5"
record_sequence=GGUCCGUUGGCGUAAUGGUAACGAGUCUCCCUCCUAAGGAGAAGGCUGCGGGUUCGAGUCGUGUACGGAACG quantity_name="yeast fitness" reported_value="≤ 0.5"
record_sequence=GUGCCGUUGGCGUAAUCGUAACGCGUCUCCCUCCUAAGGAGUAGACUGCGGGUUCGAGUCCUGUACGGAACG quantity_name="yeast fitness" reported_value="≤ 0.5"
record_sequence=GUUCCGUUGGCGUAAUGGAAACGCGUCACCCUCCUAAGGAGAAGACUGCGGGUUCGAGUGCCGUACGGAACG quantity_name="yeast fitness" reported_value="≤ 0.5"

The record that follows has no yeast fitness shown yet.
Fill in the blank: the reported yeast fitness of GUUCGGUUGGCGUAAUGGUGACGCGUCUCCCUCCUCAGGAGGAGACUGCGGGUUCGAGUCCCGUACGGAACG is ____.
≤ 0.5
